- Tested on: P. falciparum stage V gametocytes
- Parameters: BacTiter-Glo ATP luminescence viability of purified stage V gametocytes in 384-well plates, per cent inhibition versus DMSO
- Condition details: 48 h, 5 µM; inhibitor
Screen size: about 13,000 compounds; about 3,200 (25%) showed an effect of 50% or more. The list shows a part of the results.
# cutoff 10% applies to % Inhibition; >= gives TRUE, < gives FALSE

Solved entries:
Compound	Experimental system	Class
O=C(NCCCN1CCCC1=O)c1cnc(N2CCC(Oc3ccccc3)CC2)c(Cl)c1	P. falciparum stage V gametocytes	TRUE
Cc1cnc(NC(=O)c2cn(-c3ccccc3)nc2-c2cccs2)s1	P. falciparum stage V gametocytes	TRUE
COc1cc(Br)ccc1N1CCN(CCCCNC(=O)c2ccc(NC(=O)c3ccc(Cl)cc3)cc2)CC1	P. falciparum stage V gametocytes	FALSE
COc1ccccc1-c1csc(C(=O)NCC2CCN(Cc3ccc(C(C)(C)C)cc3)C2)c1 (centres unmarked)	P. falciparum stage V gametocytes	FALSE
Cc1cc(O)c(CN2CCN(Cc3cccs3)CC2)cc1C(C)C	P. falciparum stage V gametocytes	FALSE
Cc1ccc(OCC2CCN(c3ncc(C(=O)NC4CC4)cc3Cl)CC2)cc1	P. falciparum stage V gametocytes	TRUE

Is % Inhibition for Cc1cc(C(=O)Nc2ccc3c(c2)CCN3C2CCN(Cc3cc(F)cc(F)c3F)C2)no1 (centres unmarked) at or above 10%? FALSE

Is % Inhibition for `O=C(NC1CC1)c1cnc(N2CCC(OCc3ccccc3)CC2)c(Cl)c1` at or above 10%? TRUE

Is % Inhibition for `COc1ccc(NC(=O)/C=C/c2cc(F)cc(C(F)(F)F)c2)cc1OCCN(C(C)C)C(C)C` at or above 10%? FALSE

Is % Inhibition for `Fc1ccc2nc(-c3ccc(-c4cccc(CN5CCN(c6ccncc6)CC5)c4)cc3)[nH]c2c1` at or above 10%? FALSE

Is % Inhibition for CC(C)(C)c1ccc(CN2CCC(CNC(=O)c3cc(-c4ccccc4Cl)cs3)C2)cc1 (centres unmarked) at or above 10%? TRUE

Is % Inhibition for `Cc1ccc(NC(=O)c2cnc(N3CCN(c4ccncc4)CC3)c(Cl)c2)cc1` at or above 10%? FALSE

Is % Inhibition for `Fc1ccc2nc(-c3cccc(-c4ccc(CN5CCN(c6cnccn6)CC5)cc4)c3)[nH]c2c1` at or above 10%? TRUE

Is % Inhibition for `CC(C)c1cccc(OCC2CCN(c3ncc(C(=O)NC4CC4)cc3Cl)CC2)c1` at or above 10%? FALSE

Is % Inhibition for `CCNc1cc(C(=O)N[C@@H](Cc2ccccc2)[C@H](O)CNCCc2cccc(C(F)(F)F)c2)cc(N2CCCC2=O)c1` at or above 10%? FALSE

* * *

Examples of compounds with documented % Inhibition follow.
- System: P. falciparum stage V gametocytes
- Design: BacTiter-Glo ATP luminescence viability of purified stage V gametocytes in 384-well plates, per cent inhibition versus DMSO
- Condition details: 48 h, 5 µM; inhibitor
The whole screen tested about 13,000 compounds, of which about 3,200 (25%) showed an effect of 50% or more. The list shows a part of the results.
Numeric only. Scale: %

Please review the following examples before continuing.
Compound	Experimental system	Measured metric	Assay value
O=C(N[C@@H](Cc1ccccc1)C(=O)NC1CCCc2ccccc21)c1ccc(O)c(-c2ccc(Cl)c(Cl)c2)c1 (stereo partly shown)	P. falciparum stage V gametocytes	% Inhibition	35.62
O=C(CNC1=NCCN1)Nc1ccc(NC(=O)Nc2ccc(NC(=O)CNC3=NCCN3)cc2)cc1	P. falciparum stage V gametocytes	% Inhibition	4.446
O=C(/C=C/c1ccc(Cl)c(Cl)c1)NCCCCCN1CCN(C(=O)Nc2cccc(F)c2)CC1	P. falciparum stage V gametocytes	% Inhibition	4.224

Moving on to another compound below.
Any idea what % Inhibition was measured for COc1cccc(O)c1CNCC(O)c1cccc(C(F)(F)F)c1 (stereo not shown) ? -36.87
